Biological target: POP (Homo sapiens, UniProt P48147)
Sequence (P48147 whole entry): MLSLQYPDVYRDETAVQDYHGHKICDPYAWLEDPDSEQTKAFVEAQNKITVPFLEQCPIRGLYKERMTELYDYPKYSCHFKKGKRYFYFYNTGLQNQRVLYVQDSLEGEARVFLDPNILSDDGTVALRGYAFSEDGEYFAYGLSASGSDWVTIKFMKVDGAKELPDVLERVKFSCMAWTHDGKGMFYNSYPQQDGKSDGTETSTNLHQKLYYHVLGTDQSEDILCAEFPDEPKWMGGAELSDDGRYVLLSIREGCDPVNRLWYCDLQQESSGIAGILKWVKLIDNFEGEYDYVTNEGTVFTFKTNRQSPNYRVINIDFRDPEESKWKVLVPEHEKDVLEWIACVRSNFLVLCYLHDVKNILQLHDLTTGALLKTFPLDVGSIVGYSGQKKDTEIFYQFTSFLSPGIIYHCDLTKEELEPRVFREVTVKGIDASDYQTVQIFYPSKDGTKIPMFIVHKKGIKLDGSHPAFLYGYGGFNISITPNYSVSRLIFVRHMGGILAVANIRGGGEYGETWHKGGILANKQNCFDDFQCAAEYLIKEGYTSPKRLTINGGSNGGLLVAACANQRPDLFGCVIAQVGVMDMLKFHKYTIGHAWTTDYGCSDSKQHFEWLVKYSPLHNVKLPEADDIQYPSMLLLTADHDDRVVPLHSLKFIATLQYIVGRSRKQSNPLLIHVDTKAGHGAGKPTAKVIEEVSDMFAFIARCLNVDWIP
Assay: POP inhibition constants (Ki) with Tic-Pro-AFC substrate
Type: biochemical
Conditions: ratio of Ki values
Response key: true means Selectivity Ki (POP) / Ki (APCE/FAP) >= 1; false means Selectivity Ki (POP) / Ki (APCE/FAP) < 1.

// query Quick check, Selectivity Ki (POP) / Ki (APCE/FAP) >= 1? CC(=O)N[C@@H](CCCNC(=N)N)C(=O)NCCOCCOCC(=O)NCC(=O)N1CCC[C@H]1B(O)O
// result true

// query Form field: Selectivity Ki (POP) / Ki (APCE/FAP) at least 1? Entry: CC(=O)N[C@@H](CCCNC(=N)N)C(=O)NCCOCCOCC(=O)N[C@H](C)C(=O)N1CCC[C@H]1B(O)O
// result true

// query Does Selectivity Ki (POP) / Ki (APCE/FAP) meet or surpass 1 for CC(=O)N[C@@H](CCCNC(=N)N)C(=O)NCCOCCOCC(=O)N[C@H](CC(=O)O)C(=O)N1CCC[C@H]1B(O)O ?
// result false

// query Record CC(=O)N[C@@H](CCCNC(=N)N)C(=O)NCCOCCOCC(=O)N[C@@H](CO)C(=O)NCC(=O)N1CCC[C@H]1B(O)O ; criterion: Selectivity Ki (POP) / Ki (APCE/FAP) no lower than 1. Met?
// result true

// query Reported Selectivity Ki (POP) / Ki (APCE/FAP) reaches at least 1 for CC(=O)N[C@@H](CCCNC(=N)N)C(=O)NCC(=O)NCC(=O)N1CCC[C@H]1B(O)O ?
// result false
